MEASURED TARGET: Serine/threonine-protein kinase Nek11 (Homo sapiens)
Sequence (whole entry): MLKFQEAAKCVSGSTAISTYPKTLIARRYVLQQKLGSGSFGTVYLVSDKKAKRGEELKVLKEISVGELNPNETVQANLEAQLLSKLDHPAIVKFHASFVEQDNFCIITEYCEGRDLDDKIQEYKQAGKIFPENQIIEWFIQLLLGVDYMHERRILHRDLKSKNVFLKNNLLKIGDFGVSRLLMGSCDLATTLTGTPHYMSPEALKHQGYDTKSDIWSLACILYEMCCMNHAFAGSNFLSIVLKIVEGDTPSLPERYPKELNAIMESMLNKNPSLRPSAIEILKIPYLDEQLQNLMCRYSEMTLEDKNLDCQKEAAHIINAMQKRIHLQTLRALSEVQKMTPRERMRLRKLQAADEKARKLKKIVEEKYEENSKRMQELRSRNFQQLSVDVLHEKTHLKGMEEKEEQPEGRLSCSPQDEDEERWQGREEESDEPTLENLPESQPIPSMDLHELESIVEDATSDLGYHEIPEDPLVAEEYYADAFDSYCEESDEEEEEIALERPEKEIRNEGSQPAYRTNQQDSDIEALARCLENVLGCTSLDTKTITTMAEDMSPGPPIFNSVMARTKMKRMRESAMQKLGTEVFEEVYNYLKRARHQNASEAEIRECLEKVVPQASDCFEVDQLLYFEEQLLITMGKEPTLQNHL
SETUP CONDITIONS: at 10 µM
PARAMETER MEASURED: residual activity (%)
Give bare numbers, in %.

Solved cases below.
State the recorded residual activity for this entry: CNc1cc2c(Nc3cccc(Br)c3)ncnc2cn1
103

Form field: reported residual activity of Oc1n[nH]c2nnc(-c3c(-c4ccccc4)nn4ccccc34)cc12
74

If you can, please state the reported residual activity value of Cc1cncc2cccc(S(=O)(=O)N3CCCN(C(=O)CN)C[C@H]3C)c12 .
86

Now consider the entry below.
Entry under review: COc1cccc(-c2cc(=O)c3ccccc3o2)c1N . Reported residual activity?
78

----------
MEASURED TARGET: Tyrosine-protein kinase BTK (Homo sapiens) (UniProt Q06187)
Sequence (Q06187 whole entry): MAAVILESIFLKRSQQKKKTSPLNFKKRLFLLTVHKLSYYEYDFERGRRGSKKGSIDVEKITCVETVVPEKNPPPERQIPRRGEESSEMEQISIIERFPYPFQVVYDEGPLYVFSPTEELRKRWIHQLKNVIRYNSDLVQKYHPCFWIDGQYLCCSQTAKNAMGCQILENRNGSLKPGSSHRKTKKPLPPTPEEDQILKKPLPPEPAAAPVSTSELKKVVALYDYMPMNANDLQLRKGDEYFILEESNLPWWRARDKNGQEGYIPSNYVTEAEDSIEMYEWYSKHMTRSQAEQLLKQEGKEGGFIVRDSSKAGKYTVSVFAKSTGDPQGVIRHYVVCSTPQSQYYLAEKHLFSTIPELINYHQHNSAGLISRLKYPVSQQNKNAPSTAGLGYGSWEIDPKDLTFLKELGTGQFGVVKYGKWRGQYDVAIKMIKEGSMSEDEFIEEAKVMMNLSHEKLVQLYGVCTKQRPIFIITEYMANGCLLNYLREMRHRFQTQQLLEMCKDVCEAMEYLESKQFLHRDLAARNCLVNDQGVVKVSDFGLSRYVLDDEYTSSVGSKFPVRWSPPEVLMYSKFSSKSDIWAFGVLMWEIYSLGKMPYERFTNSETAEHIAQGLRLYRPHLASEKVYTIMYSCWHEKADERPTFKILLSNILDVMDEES
SETUP CONDITIONS: at 10 µM
In plain terms, low residual activity, meaning strictly below 5%, gives condition met, and everything else gives condition not met.

Does this compound meet the criterion residual activity < 5%? CC(=O)O/N=C1\C(=C2\C(=O)Nc3cc(Br)ccc32)Nc2ccccc21
condition met

Find out if reported residual activity for COc1cc2ncnc(Nc3ccc(Oc4ccccc4)cc3)c2cc1OC is less than 5%
condition met

I wonder whether CCN(CC)CCCCN1c2ccccc2Oc2ccc(Cl)cc21 has residual activity below 5%. Can you tell?
condition not met

Regarding O=C1Nc2cc(Br)ccc2/C1=C1/Nc2ccccc2/C1=N\O , kindly confirm whether its residual activity is beneath 5%.
condition met

Please let me know if O=C1NC(=O)c2c1c1c3ccccc3[nH]c1c1[nH]c3cc(Br)ccc3c21 shows residual activity below 5%.
condition not met

Hello, I'm reviewing records and need to know if residual activity of O=[N+]([O-])c1ccc(-c2nc(-c3ccc(F)cc3)c(-c3ccncc3)[nH]2)cc1 is below 5%. Could you check?
condition not met

Please check: residual activity for O=C1c2ccccc2-[n+]2ccc3c([nH]c4ccccc43)c21 , strictly under 5% or not?
condition not met

----------
MEASURED TARGET: Ephrin type-A receptor 4 (Homo sapiens)
SETUP CONDITIONS: at 10 µM
PARAMETER MEASURED: residual activity (%)
Answers are plain numbers, in %.

Consider the worked cases shown below.
residual activity lookup needed for O=C1NC(=O)/C(=C/c2ccc3c(c2)OC(F)(F)O3)S1 , thanks.
105

Given the molecule CO[C@H]1[C@@H](OC)C[C@H](C)[C@@H](OC)C2=CC(=O)C=C(NC(=O)/C(C)=C/C=C/[C@H](OC)[C@@H](OC(N)=O)/C(C)=C/[C@@H]1C)C2=O , what is its reported residual activity?
112

What value of residual activity has been recorded for this entry: Nc1nc(Nc2ccc(S(N)(=O)=O)cc2)nn1C(=S)Nc1c(F)cccc1F
86

Which measured residual activity value corresponds to Cc1nc(-c2ccccc2)c(-c2ccncc2)o1 ?
102

Could you share which residual activity value was measured for CN(C)CCCn1cc(C2=C(c3c[nH]c4ccccc34)C(=O)NC2=O)c2ccccc21 ?
82

Recorded residual activity of Cc1nc2cc3nc(-c4cccs4)cnc3cc2n1C , please.
96

Data request, read-out residual activity, for Cc1ccc(NC2=CC(=O)c3sc(C)nc3C2=O)cc1
112

Requested read-out: residual activity. Entry: O=C(O)c1ccc2c3c1cccc3c(=O)n1c3ccccc3nc21
104

Turning to the following molecule.
Fill in: residual activity of CCN(CC)CCCCN1c2ccccc2Oc2ccc(Cl)cc21 is ___
100

----------
MEASURED TARGET: CDK6/cyclin D3 (Homo sapiens) (UniProt P30281+Q00534)
SETUP CONDITIONS: at 1 µM
Description: Millipore: Percentage of residual kinase activity of CDK6 at 1uM relative to control. Control inhibitor: Phosphoric acid* at 0.3uM. Buffer: 8 mM MOPS pH 7.0, 0.2 mM EDTA
PARAMETER MEASURED: residual activity

// below: answered molecules
Item under review: Cc1ccc(NC2=CC(=O)c3sc(C)nc3C2=O)cc1 . Reported residual activity?
91%

Which residual activity is reported for this molecule? NC(=O)c1ccc2[nH]c(-c3ccc(Oc4ccc(Cl)cc4)cc3)nc2c1
93%

Look up residual activity for this molecule: N#Cc1cnc2cnc(NCc3cccnc3)cc2c1Nc1ccc(F)c(Cl)c1
123%

What value of residual activity has been reported for the following molecule? CCC(=O)Nc1ccc2ncnc(Nc3cccc(Br)c3)c2c1
84%

residual activity for N#CC(C#N)=C(N)/C(C#N)=C/c1ccc(O)cc1 ?
98%

// residual activity lookup, key: c1ccc(-c2n[nH]c3c2oc2ccccc23)cc1
75%

Consider the molecule shown here: Cc1nc2cc3nc(-c4cccs4)cnc3cc2n1C What is its recorded residual activity?
107%

# get_value(readout='residual activity', item= CC[n+]1c(/C=C/N(C)c2ccccc2)n(-c2ccccc2)c2ccc(-c3nc4ccccc4s3)cc21 )
105%

With those in mind, consider the next molecule.
Given COc1ccc(C(=O)Nc2sc3c(c2C(N)=O)CCCC3)cc1OC , state its recorded residual activity.
94%

----------
MEASURED TARGET: Activated CDC42 kinase 1 (Homo sapiens) (UniProt Q07912)
Sequence (Q07912 whole entry, looked up): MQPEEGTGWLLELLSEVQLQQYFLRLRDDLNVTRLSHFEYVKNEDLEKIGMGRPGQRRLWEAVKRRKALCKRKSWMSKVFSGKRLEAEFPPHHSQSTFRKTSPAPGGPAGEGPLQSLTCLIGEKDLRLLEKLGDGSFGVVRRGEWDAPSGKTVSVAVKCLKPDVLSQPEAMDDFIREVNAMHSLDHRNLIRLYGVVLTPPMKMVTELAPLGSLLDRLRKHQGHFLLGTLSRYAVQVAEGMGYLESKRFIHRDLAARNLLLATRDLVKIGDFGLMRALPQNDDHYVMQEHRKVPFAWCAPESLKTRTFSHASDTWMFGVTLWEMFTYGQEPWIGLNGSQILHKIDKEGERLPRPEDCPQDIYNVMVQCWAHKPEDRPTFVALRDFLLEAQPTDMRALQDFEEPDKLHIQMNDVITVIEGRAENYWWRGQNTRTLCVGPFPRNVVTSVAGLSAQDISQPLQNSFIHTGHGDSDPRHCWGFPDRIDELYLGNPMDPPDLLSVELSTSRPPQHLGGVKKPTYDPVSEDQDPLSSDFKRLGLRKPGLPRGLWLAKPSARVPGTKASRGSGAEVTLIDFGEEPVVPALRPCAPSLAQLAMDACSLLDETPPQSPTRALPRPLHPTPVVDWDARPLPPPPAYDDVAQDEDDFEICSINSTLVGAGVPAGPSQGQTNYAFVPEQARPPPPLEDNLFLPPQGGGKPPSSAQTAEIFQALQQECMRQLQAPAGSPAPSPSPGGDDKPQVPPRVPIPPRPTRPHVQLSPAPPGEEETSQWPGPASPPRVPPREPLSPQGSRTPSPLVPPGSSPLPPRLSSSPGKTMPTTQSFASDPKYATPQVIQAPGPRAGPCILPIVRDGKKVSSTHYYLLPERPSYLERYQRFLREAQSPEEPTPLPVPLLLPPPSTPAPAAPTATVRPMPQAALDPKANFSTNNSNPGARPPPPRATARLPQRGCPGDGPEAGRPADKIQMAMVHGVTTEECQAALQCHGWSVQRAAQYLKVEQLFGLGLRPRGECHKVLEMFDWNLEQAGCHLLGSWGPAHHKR
SETUP CONDITIONS: at 10 µM
Assign residual activity to each entry below.

Observe how each entry below is paired with its result.
Any idea what its residual activity is? The compound is Oc1c2ccccc2c2c3c(cccc13)N=N2
12%

Could you tell me which residual activity is on file for Cn1nc2c3c(cccc31)C(=O)c1ccccc1-2 ?
31%

So what's the measured residual activity for this one? Cn1cc(/C=C2\C(=O)Nc3ccc(S(N)(=O)=O)cc32)c2ccccc21
36%

May I ask what residual activity has been recorded for CCN(CC)C(=O)c1ccc(Nc2nc(OCC3CCCCC3)c3nc[nH]c3n2)cc1 ?
1%

Which residual activity reading was recorded for the compound Nc1cccc(-c2cc3c(Oc4cccc(O)c4)ncnc3[nH]2)c1 ?
-1%

Given the entry Oc1ccc(Nc2nc(-c3ccc(Cl)cc3)cs2)cc1 , report its measured residual activity.
80%

// switching to the query compound
What value of residual activity has been recorded for this entry: O=C1NC(=O)c2c1c1c3ccccc3[nH]c1c1[nH]c3cc(Br)ccc3c21
61%

----------
MEASURED TARGET: cAMP-dependent protein kinase catalytic subunit alpha (Homo sapiens) (UniProt P17612)
SETUP CONDITIONS: at 10 µM
PARAMETER MEASURED: residual activity (%)
One number for each entry, in %.

For the molecule CC[n+]1c(/C=C/N(C)c2ccccc2)n(-c2ccccc2)c2ccc(-c3nc4ccccc4s3)cc21 , what residual activity is on record?
146

Give residual activity for each listed item.
1. O=C1NC(=O)/C(=C\c2ccc3nccnc3c2)S1
2. Cc1cc(Nc2nc(-c3ccccc3)nc3ccccc23)n[nH]1
3. COc1cc2ncnc(Nc3ccc(NC(=O)c4ccccc4)cc3)c2cc1OC

[70, 70, 85]

May I ask what residual activity has been recorded for O=C1NC(=O)c2cc(Nc3ccc(F)cc3)c(Nc3ccc(F)cc3)cc21 ?
82

----------
MEASURED TARGET: Dual specificity protein kinase CLK2 (Homo sapiens) (UniProt P49760)
Sequence (P49760 whole entry, looked up): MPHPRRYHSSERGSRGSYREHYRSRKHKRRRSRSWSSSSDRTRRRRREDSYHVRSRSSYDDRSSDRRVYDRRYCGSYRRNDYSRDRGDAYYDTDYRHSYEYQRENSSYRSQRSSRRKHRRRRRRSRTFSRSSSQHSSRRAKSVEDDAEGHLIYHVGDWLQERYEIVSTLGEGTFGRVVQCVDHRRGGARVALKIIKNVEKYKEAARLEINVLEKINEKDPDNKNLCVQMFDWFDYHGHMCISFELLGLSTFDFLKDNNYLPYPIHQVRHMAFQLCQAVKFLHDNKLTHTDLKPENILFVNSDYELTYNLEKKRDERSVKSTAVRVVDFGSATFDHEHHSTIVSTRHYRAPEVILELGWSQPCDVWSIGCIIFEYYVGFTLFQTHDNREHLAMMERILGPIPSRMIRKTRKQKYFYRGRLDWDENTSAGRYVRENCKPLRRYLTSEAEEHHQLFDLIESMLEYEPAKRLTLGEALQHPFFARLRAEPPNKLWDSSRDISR
SETUP CONDITIONS: at 10 µM
PARAMETER MEASURED: residual activity (%)
One number for each entry, in %.

Below: 3 molecules and their reported residual activity.
Which residual activity value is on record for COc1cccc(-c2cc(=O)c3ccccc3o2)c1N ?
105

What does the data say about its residual activity? Entry: CCN(CC)C(=O)c1ccc(Nc2nc(OCC3CCCCC3)c3nc[nH]c3n2)cc1
6

// query residual activity value for entry O=[N+]([O-])c1ccc(-c2nc(-c3ccc(F)cc3)c(-c3ccncc3)[nH]2)cc1
107

Let's switch to this molecule now.
Look up residual activity: Cc1cc2ncc(-c3ccccc3)nc2cc1C
98

The origin of these recorded values is ChEMBL document CHEMBL2218924.
